Entry source: ChEMBL document CHEMBL1177875

- Tested on: MCF7
- experiment: Cytotoxicity against human MCF7 cells by sulforhodamine B assay
- Format: functional
- experimental setup: read-out: LC50 (the source's name)
property label: CC50 (µM)

INSERT INTO results (structure, measured_on, unit_descriptor, limit_sign, measured_result) VALUES
  ('CC1=CC[C@@H]([C@@](C)(O)CCCC(C)(C)NC(=S)N/N=C\c2ccc(O)cc2)CC1', 'MCF7', 'µM', '=', 56.4),
  ('CC1=CC[C@@H]([C@@](C)(O)CCCC(C)(C)NC(=S)N/N=C\c2ccccc2)CC1', 'MCF7', 'µM', '=', 60.4),
  ('CC(C)=CCC[C@](C)(O)[C@@H]1CC=C(C)CC1', 'MCF7', 'µM', '>', 100),
  ('COc1cccc2c1C(=O)c1c(O)c3c(c(O)c1C2=O)C[C@@](O)(C(=O)CO)C[C@@H]3O[C@H]1C[C@H](N)[C@H](O)[C@H](C)O1', 'MCF7', 'µM', '=', 46),
  ('CC1=CC[C@@H]([C@@](C)(O)CCCC(C)(C)NC(=S)N/N=C\c2ccc(C)cc2)CC1', 'MCF7', 'µM', '>', 100),
  ('CC1=CC[C@@H]([C@@](C)(O)CCCC(C)(C)NC(=S)N/N=C\c2ccc(N(C)C)cc2)CC1', 'MCF7', 'µM', '>', 100),
  ('CC1=CC[C@@H]([C@@](C)(O)CCCC(C)(C)NC(=S)N/N=C\c2ccc(Cl)cc2)CC1', 'MCF7', 'µM', '=', 44.3),
  ('CC1=CC[C@@H]([C@@](C)(O)CCCC(C)(C)NC(=S)NN)CC1', 'MCF7', 'µM', '>', 100);

* * *

- experiment: Cytotoxicity against human PCO3 cells by sulforhodamine B assay
- Format: functional
Reported TGI values for the following molecules.
property label: TGI

INSERT INTO assay_data (structure, measured_result) VALUES
  ('CC1=CC[C@@H]([C@@](C)(O)CCCC(C)(C)NC(=S)N/N=C\c2ccccc2Cl)CC1', '> 100 µM'),
  ('CC1=CC[C@@H]([C@@](C)(O)CCCC(C)(C)NC(=S)N/N=C\c2ccccc2)CC1', '36.2 µM'),
  ('CC1=CC[C@@H]([C@@](C)(O)CCCC(C)(C)NC(=S)NN=C(c2ccccc2)c2ccccc2)CC1', '> 100 µM'),
  ('CC1=CC[C@@H]([C@@](C)(O)CCCC(C)(C)NC(=S)N/N=C\c2cccc(Cl)c2)CC1', '37.8 µM'),
  ('CC1=CC[C@@H]([C@@](C)(O)CCCC(C)(C)NC(=S)N/N=C\c2ccc([N+](=O)[O-])cc2)CC1', '> 100 µM'),
  ('CC1=CC[C@@H]([C@@](C)(O)CCCC(C)(C)NC(=S)N/N=C(/C)c2ccccc2)CC1', '> 100 µM'),
  ('CC1=CC[C@@H]([C@@](C)(O)CCCC(C)(C)NC(=S)N/N=C\c2cccc([N+](=O)[O-])c2)CC1', '20.7 µM'),
  ('CC1=CC[C@@H]([C@@](C)(O)CCCC(C)(C)NC(=S)N/N=C\c2ccc(N(C)C)cc2)CC1', '> 100 µM');
